The reader will find reported cell viability (log2) values listed item by item below.
- Test system: A673/TR/shEF
- Method summary: cell viability (LOESS-normalised, relative to median of negative controls) (log2 ratio); higher = more viable cells (less compound effect), active = hit call of the paper (over 3 MAD below the median)
- Recorded conditions: 0.25 µM; library screen: screen1; EWS-FLI1 expression: low (doxycycline-induced shRNA knockdown); treatment time: 72 h
The whole screen tested about 3,200 compounds, of which about 300 (9.4%) showed activity. The sample holds actives, similar compounds and a random draw of the others, so the mix is not that of the screen.
Answer with a number only.

compound=C[C@H]1CC[C@]2(NC1)O[C@H]1C[C@H]3[C@@H]4CC[C@H]5C[C@@H](O[C@@H]6O[C@H](CO)[C@H](O[C@@H]7O[C@H](CO)[C@@H](O)[C@H](O[C@@H]8OC[C@@H](O)[C@H](O)[C@H]8O)[C@H]7O[C@@H]7O[C@H](CO)[C@@H](O)[C@H](O)[C@H]7O)[C@H](O)[C@H]6O)CC[C@]5(C)[C@H]4CC[C@]3(C)[C@H]1[C@@H]2C recorded_number=-0.12

C[C@@H]1CC[C@@]2(OC1)O[C@H]1[C@@H](O)[C@H]3[C@@H]4CC[C@H]5C[C@@H](O[C@@H]6O[C@H](CO)[C@H](O[C@@H]7O[C@H](CO)C(O)[C@H](O[C@@H]8OC[C@@H](O)[C@H](O)[C@H]8O)[C@H]7O[C@@H]7O[C@H](CO)[C@H](O)[C@H](O[C@@H]8O[C@H](CO)[C@@H](O)[C@H](O)[C@H]8O)[C@H]7O)[C@H](O)[C@H]6O)[C@H](O)C[C@]5(C)[C@H]4CC[C@]3(C)[C@H]1[C@@H]2C (some centres not stated) yielded cell viability (log2) of 0.00355

###

- System: A673/TR/shEF
- Method summary: cell viability (LOESS-normalised, relative to median of negative controls) (log2 ratio); higher = more viable cells (less compound effect), active = hit call of the paper (over 3 MAD below the median)
- Recorded conditions: 0.25 µM; library screen: screen1; EWS-FLI1 expression: low (doxycycline-induced shRNA knockdown); treatment time: 72 h
In all, about 3,200 compounds went through this assay and about 300 (9.4%) showed activity. The full list was thinned out, with actives kept by preference.
Just a reminder that ties go to Not satisfied: only cell viability (log2) strictly below 0.02 counts as Satisfied.

stdin: Dear colleague, could you confirm whether cell viability (log2) of COc1cc(OC)c2c(c1)OC(c1ccc(OC)c(OC)c1)C(O)C2 (configuration not stated) falls below 0.02? Thanks.
stdout: Satisfied

stdin: State whether 0.02 exceeds cell viability (log2) recorded for COc1cc2c3cc1Oc1cc(ccc1O)C[C@H]1c4c(cc(OC)c(O)c4Oc4ccc(cc4)C[C@@H]3N(C)CC2)CCN1C .
stdout: Not satisfied

stdin: Would you kindly verify if cell viability (log2) of CCC(C)C(=O)O[C@@H]1C[C@@]2(C)[C@H](c3ccoc3)OC(=O)CC23OC2(C)OC14C1(C)[C@@H](CC(=O)OC)C5(C)CC1(O)C(O)([C@@H](OC(C)=O)C43O2)[C@H]5OC(=O)C1(C)OC1C (some centres not stated) is strictly less than 0.02?
stdout: Not satisfied

stdin: Take the compound Cc1c(O)c(O)cc2c1CC=C1[C@@]2(C)CC[C@@]2(C)[C@@H]3C[C@](C)(C(=O)O)CC[C@]3(C)CC[C@]12C and say whether its cell viability (log2) is less than 0.02.
stdout: Satisfied

stdin: Quick check: does C/C=C(\C)C(=O)O[C@H]1C[C@@H](OC(C)=O)[C@@]2(C(=O)OC)CO[C@H]3[C@@H](O)[C@@](C)([C@]45O[C@@]4(C)[C@H]4C[C@@H]5O[C@@H]5OC=C[C@@]54O)[C@H]4[C@]1(CO[C@]4(O)C(=O)OC)[C@@H]32 have cell viability (log2) under 0.02?
stdout: Not satisfied

stdin: Please indicate whether the reported cell viability (log2) of NC1CC1c1ccccc1 (configuration not stated) is strictly below 0.02.
stdout: Not satisfied

stdin: cell viability (log2) strictly < 0.02 for this compound? Cn1c(=O)c2c(ncn2CCCl)n(C)c1=O
stdout: Satisfied
